# TARGET_OR_SYSTEM: UniProt:P21731
# Sequence (P21731 whole entry): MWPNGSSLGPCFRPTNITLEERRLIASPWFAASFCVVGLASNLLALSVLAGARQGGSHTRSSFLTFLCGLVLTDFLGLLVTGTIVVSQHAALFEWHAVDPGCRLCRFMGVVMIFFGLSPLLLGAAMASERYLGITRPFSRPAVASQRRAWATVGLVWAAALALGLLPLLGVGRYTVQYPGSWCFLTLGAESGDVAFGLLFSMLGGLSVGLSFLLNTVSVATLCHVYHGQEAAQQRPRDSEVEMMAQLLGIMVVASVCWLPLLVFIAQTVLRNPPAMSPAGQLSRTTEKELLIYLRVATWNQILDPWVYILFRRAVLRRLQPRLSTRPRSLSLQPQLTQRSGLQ
# Format: functional, cell-based
Property: AC50; scope: individual molecules
QUANTITY: AC50

* CO/N=C(\C(=O)N[C@@H]1C(=O)N2C(C(=O)[O-])=C(C[N+]3(C)CCCC3)CS[C@H]12)c1csc(N)n1 | > 300 µM
* O=C(Nc1ccccc1)OCC(CN1CCCCC1)OC(=O)Nc1ccccc1 (stereo not given) | > 30 µM
* CC(C)Cc1ccc(CC(=O)O)cc1 | > 30 µM
* Oc1ncnc2[nH]ncc12 | > 30 µM
* NC(=O)c1cnccn1 [PYRAZINAMIDE] | > 30 µM
